System: strains of human rhinovirus (HRV)
Method: Antirhinoviral H1-HeLa cell culture assay (XTT cell protection, EC50), other HRV strains
Type: cell-based, human rhinovirus in H1-HeLa cells
Applied conditions: Human rhinovirus sp., HRV13, H1-HeLa, HRV-13; read-out: EC50
Recorded metric: log10(EC50) (log10 of the value in nM)
On a log10 scale: recorded EC50, unit nM.

The reported value for CCOC(=O)/C=C/[C@H](C[C@@H]1CCNC1=O)NC(=O)[C@H](CC)n1cccc(NC(=O)c2cc(C)on2)c1=O [Compound 26] in terms of log10(EC50) is 1.76

The reported value for CC[C@@H](C(=O)N[C@H](/C=C/C(=O)OCc1ccccc1)C[C@@H]1CCNC1=O)n1cccc(NC(=O)c2cc(C)on2)c1=O [Compound 62] in terms of log10(EC50) is 0.60

The reported value for C#CC[C@@H](C(=O)N[C@H](/C=C/C(=O)OCC)C[C@@H]1CCNC1=O)n1cccc(NC(=O)c2cc(C)on2)c1=O [Compound 31] in terms of log10(EC50) is 1.78

The reported value for Cc1cc(C(=O)Nc2cccn([C@@H](Cc3ccc(F)c(F)c3)C(=O)N[C@H](/C=C/C(=O)OC(C)(C)C)C[C@@H]3CCNC3=O)c2=O)no1 [Compound 46] in terms of log10(EC50) is 1.89

The reported value for C#CC[C@@H](C(=O)N[C@H](/C=C/C(=O)OCc1ccccc1)C[C@@H]1CCNC1=O)n1cccc(NC(=O)c2cc(C)on2)c1=O [Compound 63] in terms of log10(EC50) is 1.65

The reported value for C#CC[C@@H](C(=O)N[C@H](/C=C/C(=O)OC1CCCC1)C[C@@H]1CCNC1=O)n1cccc(NC(=O)c2cc(C)on2)c1=O [Compound 40] in terms of log10(EC50) is 2.17
